Across several studies, compounds have been characterized by their IC50 on human ACC2 (Homo sapiens (Human)); a selection follows.
Reply numerically in nM, unit not repeated.

// IC50 (human ACC2 (Homo sapiens (Human))) for C[C@H](NC(=O)c1cnco1)c1ccc(C2CN(c3ccc4c(c3)OCCO4)C2)cc1 = 1130

// IC50 (human ACC2 (Homo sapiens (Human))) for C[C@H](NC(=O)CN)c1ccc(CN2Cc3ccc(OCC4CC4)cc3C(F)C2)cc1 (stereo partly shown) = 266

// IC50 (human ACC2 (Homo sapiens (Human))) for CC(C)Nc1ncc(C#Cc2ccc(CC(C)NC(=O)C3CC3)cc2)cn1 (stereo not shown) = 2600

// IC50 (human ACC2 (Homo sapiens (Human))) for CN(c1nccc(N2CCC(c3ccc(CC(=O)NC4CCCC4)cc3)CC2)n1)C1CCCC1 = 4180
